Molecular target: LPA1 (Homo sapiens, UniProt Q92633)
Sequence (Q92633 whole entry, species assumed): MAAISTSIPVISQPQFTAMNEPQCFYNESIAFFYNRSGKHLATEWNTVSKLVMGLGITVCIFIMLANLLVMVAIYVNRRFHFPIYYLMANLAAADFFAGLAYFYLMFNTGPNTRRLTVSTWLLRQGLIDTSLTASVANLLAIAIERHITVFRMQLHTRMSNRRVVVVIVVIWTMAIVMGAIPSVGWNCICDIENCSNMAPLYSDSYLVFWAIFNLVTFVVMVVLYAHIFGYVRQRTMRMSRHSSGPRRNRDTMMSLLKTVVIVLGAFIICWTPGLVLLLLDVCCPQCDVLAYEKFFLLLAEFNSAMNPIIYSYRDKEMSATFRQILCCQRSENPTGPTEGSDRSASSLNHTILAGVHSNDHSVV
Test: LPA agonist/antagonist activity at LPA1 (Table 2)
Format: cell-based
Settings: result in words
Peptide text beside a SMILES is read from it. * marks the point of attachment. Dnp = O=[N+]([O-])c1ccc(*)c([N+](=O)[O-])c1
property.name: LPA1 effect

Please review the entries below; each comes with its answer.
Given the compound COC(=O)C(CCC(=O)O)N1C(=O)c2ccccc2C1=O (stereo not shown) and test system LPA1 (Homo sapiens, UniProt Q92633), the measured LPA1 effect is No effect

Given the compound NCC(=O)NC(CSc1ccc([N+](=O)[O-])cc1[N+](=O)[O-])C(=O)NC(CCC(=O)O)C(=O)O (stereo not shown) [NSC 161613] (H-Gly-Cys(Dnp)-Glu-OH; configuration not given here) and test system LPA1 (Homo sapiens, UniProt Q92633), the measured LPA1 effect is No effect

Given the compound CCCC(=O)Nc1ncnc2c1ncn2C1OC2COP(=O)(O)OC2C1OC(=O)CCC (stereo not shown) and test system LPA1 (Homo sapiens, UniProt Q92633), the measured LPA1 effect is Weak agonist

Given the compound OC1C(O)[C@@H](COP(O)(O)=S)O[C@H]1n1cnc2c(NCc3ccccc3)ncnc21 (stereo partly shown) and test system LPA1 (Homo sapiens, UniProt Q92633), the measured LPA1 effect is No effect

Next:
Given the compound O=C(O)CCC(NC(=O)OCc1ccccc1)C(=O)NC(Cc1ccccc1)C(=O)O (stereo not shown) and test system LPA1 (Homo sapiens, UniProt Q92633), the measured LPA1 effect is No effect

Given the compound COc1ccc2c(c1)c(CC(=O)O)c(C)n2C(=O)c1ccc(Cl)cc1 and test system LPA1 (Homo sapiens, UniProt Q92633), the measured LPA1 effect is Weak agonist

Given the compound O=C(NC(Cc1ccc2c(c1)OCO2)C(=O)O)c1ccccc1 (stereo not shown) and test system LPA1 (Homo sapiens, UniProt Q92633), the measured LPA1 effect is Weak agonist

Given the compound O=P(O)(O)OC[C@H]1O[C@@H](n2cnc3c(NCc4ccccc4)ncnc32)C(O)C1O (stereo partly shown) and test system LPA1 (Homo sapiens, UniProt Q92633), the measured LPA1 effect is No effect

Given the compound O=C(O)/C=C/C(=O)Nc1cccc(NC(=O)/C=C/C(=O)O)c1C(=O)O and test system LPA1 (Homo sapiens, UniProt Q92633), the measured LPA1 effect is No effect

----------
Biological target: S1P1 mutant T5.49G (Homo sapiens, UniProt P21453, T211G)
Sequence (P21453 whole entry T211G): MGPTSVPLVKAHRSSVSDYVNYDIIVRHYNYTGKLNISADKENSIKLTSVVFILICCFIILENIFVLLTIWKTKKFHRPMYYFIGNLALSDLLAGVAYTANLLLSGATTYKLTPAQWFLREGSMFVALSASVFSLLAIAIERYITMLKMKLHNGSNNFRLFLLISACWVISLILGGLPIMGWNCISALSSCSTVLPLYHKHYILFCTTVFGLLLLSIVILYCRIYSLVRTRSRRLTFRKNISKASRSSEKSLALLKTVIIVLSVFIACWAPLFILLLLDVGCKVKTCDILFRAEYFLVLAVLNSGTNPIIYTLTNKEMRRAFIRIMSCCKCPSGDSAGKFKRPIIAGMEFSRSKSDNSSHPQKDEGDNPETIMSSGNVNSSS
Assay: [35S]GTPγS binding, S1P1 T5.49G
Conditions: S1P-induced, S1P1 T5.49G in RH7777 cells
Method: RH7777 and HEK-293 cells (ATCC, Manassas, Va.) were maintained in Dulbecco's modified minimal essential medium (DMEM) containing 10% fetal bovine serum (Hyclone, Logan, Utah). Cells (2×10^6) were transfected with 2 μg of plasmid DNA with Effectene (Qiagen, Valencia, Calif.) according to the manufacturer's instructions, for 24 h. Before ligand binding and receptor activation assays, the cells were washed twice with serum-free DMEM and serum-starved for at least 6 h. […]
property.name: pEC50
Remember the convention: pEC50 equals -log10 of concentration in molar.

Documented pEC50 of CCCCCCCCCCCCC/C=C/[C@@H](O)[C@@H](N)COP(=O)(O)O [S1P, Sphingosine 1-phosphate] : 8.27

----------
Molecular target: S1P1 mutant M3.32G (Homo sapiens, UniProt P21453, M124G)
Sequence (P21453 whole entry M124G): as the sequence (P21453 whole entry T211G) above, with M124G, G211T counted along it
Assay: [35S]GTPγS binding, S1P1 M3.32G
Conditions: S1P-induced, S1P1 M3.32G in RH7777 cells
property.name: pEC50
Remember the convention: pEC50 equals -log10 of concentration in molar.

Documented pEC50 of CCCCCCCCCCCCC/C=C/[C@@H](O)[C@@H](N)COP(=O)(O)O [S1P, Sphingosine 1-phosphate] : 7.46

----------
Target: S1P1 mutant V3.40T (Homo sapiens, UniProt P21453, V132T)
Sequence (P21453 whole entry V132T): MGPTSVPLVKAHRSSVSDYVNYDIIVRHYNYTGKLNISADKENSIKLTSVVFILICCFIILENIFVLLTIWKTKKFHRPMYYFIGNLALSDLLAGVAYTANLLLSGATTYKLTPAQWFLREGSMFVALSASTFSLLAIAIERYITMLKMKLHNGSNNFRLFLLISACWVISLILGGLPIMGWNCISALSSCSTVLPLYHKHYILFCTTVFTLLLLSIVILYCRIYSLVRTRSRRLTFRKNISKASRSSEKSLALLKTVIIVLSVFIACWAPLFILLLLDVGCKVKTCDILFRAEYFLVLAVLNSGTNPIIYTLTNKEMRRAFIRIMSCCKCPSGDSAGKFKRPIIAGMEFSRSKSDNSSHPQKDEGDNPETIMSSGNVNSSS
Assay: [35S]GTPγS binding, S1P1 V3.40T
Settings: S1P-induced, S1P1 V3.40T in RH7777 cells
property.name: EC50 (nM)
All answers are understood in nM, so give the number only.

Given the compound CCCCCCCCCCCCC/C=C/[C@@H](O)[C@@H](N)COP(=O)(O)O [S1P, Sphingosine 1-phosphate] and test system S1P1 mutant V3.40T (Homo sapiens, UniProt P21453, V132T), the measured EC50 is 13.8

----------
Molecular target: S1P1 mutant T5.45S (Homo sapiens, UniProt P21453, T207S)
Test: [35S]GTPγS binding, S1P1 T5.45S
Conditions: S1P-induced, S1P1 T5.45S in RH7777 cells
property.name: pEC50
Remember the convention: pEC50 equals -log10 of concentration in molar.

Documented pEC50 of CCCCCCCCCCCCC/C=C/[C@@H](O)[C@@H](N)COP(=O)(O)O [S1P, Sphingosine 1-phosphate] : 8.10

----------
Target: S1P1 mutant V6.37L (Homo sapiens, UniProt P21453, V258L)
Sequence (P21453 whole entry V258L): as the sequence (P21453 whole entry T211G) above, with G211T, V258L counted along it
Test: [35S]GTPγS binding, S1P1 V6.37L
Details: S1P-induced, S1P1 V6.37L in RH7777 cells
property.name: EC50 (nM)
All answers are understood in nM, so give the number only.

Documented EC50 of CCCCCCCCCCCCC/C=C/[C@@H](O)[C@@H](N)COP(=O)(O)O [S1P, Sphingosine 1-phosphate] : 37.6

----------
Molecular target: S1P1 mutant V5.47T (Homo sapiens, UniProt P21453, V209T)
Assay: [35S]GTPγS binding, S1P1 V5.47T
Details: S1P-induced, S1P1 V5.47T in RH7777 cells
property.name: pEC50
Remember the convention: pEC50 equals -log10 of concentration in molar.

Documented pEC50 of CCCCCCCCCCCCC/C=C/[C@@H](O)[C@@H](N)COP(=O)(O)O [S1P, Sphingosine 1-phosphate] : 7.05

----------
Target: S1P1 mutant F5.43G (Homo sapiens, UniProt P21453, F205G)
Sequence (P21453 whole entry F205G): as the sequence (P21453 whole entry V132T) above, with T132V, F205G counted along it
Test: [35S]GTPγS binding, S1P1 F5.43G
Conditions: S1P-induced, S1P1 F5.43G in RH7777 cells
property.name: EC50 (nM)
All answers are understood in nM, so give the number only.

Documented EC50 of CCCCCCCCCCCCC/C=C/[C@@H](O)[C@@H](N)COP(=O)(O)O [S1P, Sphingosine 1-phosphate] : 11.8

----------
Target: WT S1P1 (Homo sapiens, UniProt P21453)
Sequence (P21453 whole entry): as the sequence (P21453 whole entry V132T) above, with T132V counted along it
Assay: Ligand-induced [35S]GTPγS binding, WT S1P1
Settings: S1P-induced, WT-S1P1 in RH7777 cells
property.name: pEC50
Remember the convention: pEC50 equals -log10 of concentration in molar.

Documented pEC50 of CCCCCCCCCCCCC/C=C/[C@@H](O)[C@@H](N)COP(=O)(O)O [S1P, Sphingosine 1-phosphate] : 8.85

----------
Biological target: S1P1 mutant V6.37T (Homo sapiens, UniProt P21453, V258T)
Sequence (P21453 whole entry V258T): as the sequence (P21453 whole entry V132T) above, with T132V, V258T counted along it
Assay: [35S]GTPγS binding, S1P1 V6.37T
Conditions: S1P-induced, S1P1 V6.37T in RH7777 cells
property.name: pEC50
Remember the convention: pEC50 equals -log10 of concentration in molar.

Documented pEC50 of CCCCCCCCCCCCC/C=C/[C@@H](O)[C@@H](N)COP(=O)(O)O [S1P, Sphingosine 1-phosphate] : 7.89

----------
Known pIC50 of a selection of molecules
Molecular target: LPA2 (Homo sapiens, UniProt Q9HBW0)
Sequence (Q9HBW0 whole entry, species assumed): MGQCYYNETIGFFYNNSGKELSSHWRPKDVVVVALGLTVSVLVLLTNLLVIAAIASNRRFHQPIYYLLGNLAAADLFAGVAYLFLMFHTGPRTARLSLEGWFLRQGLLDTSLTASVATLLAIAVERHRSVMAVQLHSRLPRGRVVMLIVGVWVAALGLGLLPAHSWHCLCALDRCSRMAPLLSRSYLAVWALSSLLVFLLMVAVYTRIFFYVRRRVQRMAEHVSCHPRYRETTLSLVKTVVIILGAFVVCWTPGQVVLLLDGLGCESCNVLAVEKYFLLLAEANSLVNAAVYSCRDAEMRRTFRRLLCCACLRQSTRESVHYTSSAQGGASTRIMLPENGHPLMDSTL
Experiment: LPA agonist/antagonist activity at LPA2 (Table 2)
Remember the convention: pIC50 equals -log10 of concentration in molar.

Documented pIC50 of Cn1c(=O)c2c(nc(C(=N)SCC(=O)O)n2C)n(C)c1=O [NSC 62586] : 6.76

Documented pIC50 of Cc1cc2nc3c(=O)[nH]c(=O)nc-3n(CCOC(=O)CCC(=O)O)c2cc1C [NSC 3066] : 6.78

Documented pIC50 of COc1ccc(C(=O)CCCC(=O)O)c(OC)c1O [NSC 10167] : 7.06

Next:
Documented pIC50 of O=C(NC(Cc1ccc2c(c1)OCO2)C(=O)O)c1ccccc1 (stereo not shown) [NSC 10188] : 5.16

----------
Target: LPA1 (Homo sapiens)
Assay: LPA agonist/antagonist activity at LPA1 (Table 2)
property.name: pIC50
Remember the convention: pIC50 equals -log10 of concentration in molar.

Documented pIC50 of Cc1cc2nc3c(=O)[nH]c(=O)nc-3n(CCOC(=O)CCC(=O)O)c2cc1C : 6.71

Here is another compound to look at.
Documented pIC50 of Cn1c(=O)c2c(nc(C(=N)SCC(=O)O)n2C)n(C)c1=O : 6.63

----------
Molecular target: S1P1 mutant F6.44Y (Homo sapiens, UniProt P21453, F265Y)
Assay: [35S]GTPγS binding, S1P1 F6.44Y
Conditions: S1P-induced, S1P1 F6.44Y in RH7777 cells
property.name: pEC50
Remember the convention: pEC50 equals -log10 of concentration in molar.

Documented pEC50 of CCCCCCCCCCCCC/C=C/[C@@H](O)[C@@H](N)COP(=O)(O)O [S1P, Sphingosine 1-phosphate] : 8.43

Ref: patent US20090029949A1
